tested target: AKT2 (Homo sapiens)
Construct: expressed in transfected cells; host or cells: HEK293
Sequence (P31751 whole entry): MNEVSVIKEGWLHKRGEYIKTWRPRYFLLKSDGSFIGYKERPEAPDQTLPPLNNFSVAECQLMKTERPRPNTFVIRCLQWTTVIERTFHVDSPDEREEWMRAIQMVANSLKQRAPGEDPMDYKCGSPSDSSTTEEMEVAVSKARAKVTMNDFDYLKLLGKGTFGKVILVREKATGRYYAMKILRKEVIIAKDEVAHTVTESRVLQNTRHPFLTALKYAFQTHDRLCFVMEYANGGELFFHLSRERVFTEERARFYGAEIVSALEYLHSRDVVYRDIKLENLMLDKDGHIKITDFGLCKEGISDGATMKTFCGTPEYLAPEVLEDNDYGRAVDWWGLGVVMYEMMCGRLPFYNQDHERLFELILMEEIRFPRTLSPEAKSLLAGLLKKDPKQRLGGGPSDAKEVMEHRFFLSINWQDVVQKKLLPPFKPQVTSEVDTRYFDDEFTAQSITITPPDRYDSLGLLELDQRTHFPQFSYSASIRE
protocol description: Live cell AKT2 target engagement by NanoBRET competitive probe displacement in HEK293 cells
Assay type: binding
particulars: NanoBRET live cell target engagement, HEK293 cells, 2 h at 37° C.; read-out: AKT2 IC50
Reported IC50 values for a set of compounds
Numbers only here, please. The scale is µM.

# count of solved cases: 3
| compound | tested target | measured endpoint | value measured |
| --- | --- | --- | --- |
| Nc1ncccc1-c1nc2ccc(-n3cccn3)nc2n1-c1ccc2c(c1)CC(F)[C@@H]2NC1CN(c2ccccn2)C1 (stereo partly shown) | AKT2 (Homo sapiens) | IC50 | 1.03 |
| Nc1ncccc1-c1nc2ccc(-n3cccn3)nc2n1-c1ccc2c(c1)CC[C@@H]2NC(=O)c1ccnc(OC(F)F)c1 | AKT2 (Homo sapiens) | IC50 | 0.0294 |
| CS(=O)(=O)Nc1ccc(C(=O)N[C@H]2CCc3cc(-n4c(-c5cccnc5N)nc5ccc(-n6cccn6)nc54)ccc32)cc1 | AKT2 (Homo sapiens) | IC50 | 0.0489 |

Supply IC50 value. Item: "Cc1nnn([C@H]2CCc3cc(-n4c(-c5cccnc5N)nc5ccc(-n6cccn6)nc54)ccc32)c1C"
0.368

Supply IC50 value. Item: "Nc1ncccc1-c1nc2ccc(-n3cccn3)nc2n1-c1ccc2c(c1)CC[C@@H]2n1cc(C2CCC2)nn1"
0.636

Supply IC50 value. Item: "Nc1ncccc1-c1nc2ccc(-n3cccn3)nc2n1-c1ccc2c(c1)CC[C@@H]2NC(=O)c1ccc2[nH]c(=O)oc2c1"
0.0786

----------
Reported log10 IC50 values for a set of compounds
tested target: AKT2 (Homo sapiens)
Construct: expressed in transfected cells; host or cells: HEK293
protocol description: Live cell AKT2 target engagement by NanoBRET competitive probe displacement in HEK293 cells
Type: binding
particulars: NanoBRET live cell target engagement, HEK293 cells, 2 h at 37° C.; read-out: AKT2 IC50
// units: nM (pre-log); metric: IC50; scale: log10

| compound | value measured |
| --- | --- |
| Cc1ccc(C(C)N[C@H]2CCc3cc(-n4c(-c5cccnc5N)nc5ccc(-n6cccn6)nc54)ccc32)cn1 (stereo partly shown) [Compound 153] | 3.35 |
| Cc1ncccc1C(=O)N[C@@H]1c2ccc(-n3c(-c4cccnc4N)nc4ccc(-n5cccn5)nc43)cc2CC1F (stereo partly shown) [Compound 147] | 2.12 |
| Nc1ncccc1-c1nc2ccc(-c3ncco3)nc2n1-c1ccc2c(c1)CC[C@@H]2n1ccnn1 | 3.37 |

Supply log10 IC50 value. Item: "Nc1ncccc1-c1nc2ccc(-n3cccn3)nc2n1-c1ccc2c(c1)CC[C@@H]2NC(=O)c1ccnc2c1OCCO2"
3.03

Supply log10 IC50 value. Item: "Nc1ncccc1-c1nc2ccc(-n3nccn3)nc2n1-c1ccc2c(c1)CC[C@@H]2NC1CCN(c2ccccn2)CC1"
3.64

Supply log10 IC50 value. Item: "Cc1ccc(S(=O)(=O)N[C@H]2CCc3cc(-n4c(-c5cccnc5N)nc5ccc(-n6cccn6)nc54)ccc32)cn1"
3.33

Supply log10 IC50 value. Item: "Cc1cncc(C(=O)N[C@H]2CCc3cc(-n4c(-c5cccnc5N)nc5ccc(-n6cccn6)nc54)ccc32)n1"
3.51
